Taken from the supplement of paper PMC9732359.

Assay: protein stability index of a GFP-peptide fusion (yeast GPS) (PSI 1-4); higher = more stable; sorted into four equal gates, so the index is relative within each strain
Conditions: san1∆
Assay endpoint: protein stability index

Here are 10 sequences together with their reported answers.
INSERT INTO assay_data (entry_sequence, observed) VALUES
  ('RPLKLERGFACIPLVGI [FAS1]', 1.51),
  ('MTVKLESITYQKIMILQ [RGR1]', 1.6),
  ('NKSTSSEAEYSKDIETL [YIL149C/MLP2]', 3.21),
  ('LVGSWKKDRATGDADEP [RPO21]', 3.15),
  ('NHKIIARVKAFDRHCNM [SMD2]', 2.1),
  ('LLKELSKNAQFICTTFR [SMC3]', 1.84),
  ('NELLLPSELNQLKMVNE [RPC82]', 3.25),
  ('EELFTQLFHSMSIVFGD [UBP6]', 3.38),
  ('MMQDPQMQQMAKQFGMG [SRP54]', 3.03),
  ('FGPIKVELPTKETVEIG [FAS1]', 3.23);

Give a short answer stating reported protein stability index for EPLAIALSMGKSSAFVI [ARP7] .
1.67

Give a short answer stating reported protein stability index for NLGIPKIAYRGVKDCQE [SSN2] .
1.54

Give a short answer stating reported protein stability index for TEKDDNKTNNEDLFDDY [NUT1] .
3.01

Give a short answer stating reported protein stability index for VTPTKTEVIIRATRTQD [RPS3] .
2.57

----------
Experiment: protein stability index of a GFP-peptide fusion (yeast GPS) (PSI 1-4); higher = more stable; sorted into four equal gates, so the index is relative within each strain
Settings: pdr5∆
Assay endpoint: protein stability index
Enter a number only.

INSERT INTO assay_data (entry_sequence, observed) VALUES
  ('PRRFGKGSRQCRVCSSH [RPS29B]', 3.06),
  ('KYLLTQRVFKPVDITMM [PRP8]', 2.99);

Give a short answer stating reported protein stability index for KQYDNRITKSNEKSQAE [LRP1] .
2.91

Give a short answer stating reported protein stability index for PDPNFENSIGYNNRKCW [PRP8] .
2.97

----------
Assay: protein stability index of a GFP-peptide fusion (yeast GPS) (PSI 1-4); higher = more stable; sorted into four equal gates, so the index is relative within each strain
Conditions: san1∆
Assay endpoint: protein stability index
Enter a number only.

INSERT INTO assay_data (entry_sequence, observed) VALUES
  ('AAPSGNYKQLTLVGGGA [RRP43]', 2.23);

Give a short answer stating reported protein stability index for KAKKLIQSLPPTLKVNR [RPL38] .
2.02

Give a short answer stating reported protein stability index for DDIINNDEPSHKKIKVA [SIR2] .
2.64

Give a short answer stating reported protein stability index for YLKVSEEEIKKFDSRIR [PRP8] .
2.78

----------
Assay: protein stability index of a GFP-peptide fusion (yeast GPS) (PSI 1-4); higher = more stable; sorted into four equal gates, so the index is relative within each strain
Settings: ubr1∆
Attribute: protein stability index
Enter a number only.

INSERT INTO measurements (entry_sequence, observed) VALUES
  ('SQIRLYAKFKRNTMMIQ [RGR1]', 2.61),
  ('ANALGGLGVNRRILAAA [SSN3]', 1.92),
  ('FTKYKPARSSSLRSNVV [YAR002W/NUP60]', 2.7),
  ('VKSFKPHLLKQGLAMVE [RRP42]', 2.29),
  ('NVSFVLPDEKSDAMSID [YCG1]', 3.21);

Give a short answer stating reported protein stability index for IPSIPNPIANHTVTNSP [SNF5] .
2.6

Give a short answer stating reported protein stability index for KNLISRINTLPQVQLPV [ECM29] .
2.83

Give a short answer stating reported protein stability index for IQKQIETIQADLNHVTE [SMC2] .
2.87

Give a short answer stating reported protein stability index for VSFDFNGVPGQALDAVR [MED8] .
3.36

Give a short answer stating reported protein stability index for FASIPVSNSISRLGEEN [SNU114] .
2.48

Give a short answer stating reported protein stability index for KKIKGKSIQDIVGLATL [SRP21] .
3.12

Give a short answer stating reported protein stability index for TFTFTAHMGVLLVLLQD [SWP82] .
1.42

Give a short answer stating reported protein stability index for GGNSNKSPPQFFYNISS [SIN4] .
2.58

Give a short answer stating reported protein stability index for SRFTNVSVIAPESQGQH [YMR153W/NUP53] .
3.19

Give a short answer stating reported protein stability index for VFLRNRLKYALNGREVK [RPS4A] .
3.06

Give a short answer stating reported protein stability index for LKSASKETAPVIDTLAA [RPL28] .
2.12

Give a short answer stating reported protein stability index for KLSKILPRYQELTKEEA [SMC3] .
3.35

Give a short answer stating reported protein stability index for MLMPKQERNKIHQYLFQ [RPS10B] .
2.78
